B1: IFRG15 (parent)
chain: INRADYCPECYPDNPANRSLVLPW

- Variants of: B1
- protocol-summary: protein stability index of a GFP-peptide fusion (GPS, HEK-293T) (PSI 1-6); higher = more stable;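 note: lentivirally expressed fusions sorted by FACS into six bins by GFP to DsRed ratio, PSI derived from sequencing read proportions per bin multiplied by bin number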
- study-conditions: c terminus: a fixed tail appended
parameter-measured: protein stability index
When you answer, write just the number.

Field: example entries. Status: answers known.
| chain | protein stability index |
| --- | --- |
| INRADYCHECYPDNPANRSLVLPW [P8H] | 2.3 |
| INRADYCSECYPDNPANRSLVLPW [P8S] | 2.46 |
| INRADYCPECYPDNPASRSLVLPW [N17S] | 2.21 |

// next item, protein stability index requested
query: Tell me measured protein stability index for INDADYCPECYPDNPANRSLVLPW [R3D] please.
result: 2.59
